Target: T1, full-length beta-Catenin (Uniprot ID P35222) (Homo sapiens (Human), UniProt P35222 2-781)
T1 construct: Used full-length in both the FP and the AlphaScreen assay; also called B-Catenin; bCat
T1 sequence: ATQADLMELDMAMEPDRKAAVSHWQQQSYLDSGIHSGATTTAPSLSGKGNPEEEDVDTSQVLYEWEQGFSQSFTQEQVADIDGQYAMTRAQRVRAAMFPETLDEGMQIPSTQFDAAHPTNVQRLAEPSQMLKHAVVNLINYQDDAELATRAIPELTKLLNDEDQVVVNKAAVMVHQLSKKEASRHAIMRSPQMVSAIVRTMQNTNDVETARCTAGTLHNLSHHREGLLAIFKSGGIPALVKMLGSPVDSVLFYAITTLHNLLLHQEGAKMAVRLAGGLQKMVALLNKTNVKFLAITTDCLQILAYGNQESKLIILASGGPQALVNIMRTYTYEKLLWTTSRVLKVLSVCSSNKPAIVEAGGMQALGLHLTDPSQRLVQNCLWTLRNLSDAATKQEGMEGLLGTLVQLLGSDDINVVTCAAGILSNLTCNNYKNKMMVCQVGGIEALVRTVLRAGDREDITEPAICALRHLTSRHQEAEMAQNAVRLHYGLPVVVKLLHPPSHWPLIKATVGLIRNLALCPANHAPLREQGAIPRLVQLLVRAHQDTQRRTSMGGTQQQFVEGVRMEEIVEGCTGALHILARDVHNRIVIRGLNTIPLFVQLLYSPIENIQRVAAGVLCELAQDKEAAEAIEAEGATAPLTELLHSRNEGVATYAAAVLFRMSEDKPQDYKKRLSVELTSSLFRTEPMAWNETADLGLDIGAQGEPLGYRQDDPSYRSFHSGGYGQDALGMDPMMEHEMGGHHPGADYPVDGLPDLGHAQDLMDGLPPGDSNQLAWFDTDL
Assay: fluorescence polarization competition; full-length beta-catenin, 5FAM-TCF4(10-53) probe
Starred links: 1 amine or outer side, 2 acyl side, 3 side chain; linkers in the order of their positions; H or OH if unused. Positions of bridges follow the written chain, without caps; N, C: chain ends. Non-standard residues stand in square brackets, D forms with d. Primed or numbered codes have the meaning given here. B5(20) = 2-amino-2-(pent-4-en-1-yl)hept-6-enoic acid = bis(4-pentenyl)glycine, stitching residue, C=CCCCC(CCCC=C)(N[*:1])C(=O)[*:2]; B5(21) = 2-amino-2-(pent-4-en-1-yl)hept-6-enoic acid, bis(4-pentenyl)glycine (stitching residue), C=CCCCC(CCCC=C)(N[*:1])C(=O)[*:2]; SeN = (S)-5-(((allyloxy)carbonyl)(methyl)amino)-2-amino-2-methylpentanoic acid, C=CCOC(=O)N(C)CCC[C@](C)(N[*:1])C(=O)[*:2]; RdN = (R)-4-(((allyloxy)carbonyl)(methyl)amino)-2-amino-2-methylbutanoic acid, C=CCOC(=O)N(C)CC[C@@](C)(N[*:1])C(=O)[*:2]; S7 = C[C@@](CCCCCC=[*:3])(N[*:1])C(=O)[*:2]; αAllylPro = C=CC[C@@]1(C(=O)O)CCCN1; S8 = C=CCCCCCC[C@](C)(N)C(=O)O
Reported values of EC50 for individual entries
Kindly provide the numeric value in µM only, without the unit symbol.

Consider the following illustrative entries.
INSERT INTO measurements (binder, experimental_result) VALUES
  ('Ac-[αAllylPro]DA[B5(21)]DDAAFV[SeN]FWQ-NH2 (staple 1-4, 4-11, Stapled (stitched) peptide; also called Ac-PL3-Asp-Ala-B5-Asp-Asp-Ala-Ala-Phe-Val-SeN-Phe-Trp-Gln-NH2) [I-54]', 3.19),
  ('Ac-[αAllylPro]DA[B5(20)]DDAAFV[S8]FWQ-NH2 (staple 1-4, 4-11, Stapled (stitched) peptide; also called Ac-PL3-Asp-Ala-B5-Asp-Asp-Ala-Ala-Phe-Val-S8-Phe-Trp-Gln-NH2) [I-52]', 3.2);

Which EC50 is reported for this binder? Ac-ADI[RdN]DEAAFQ[S7]FWH-NH2 (staple 4-11, Stapled peptide; also called Ac-Ala-Asp-Ile-RdN-Asp-Glu-Ala-Ala-Phe-Gln-S7-Phe-Trp-His-NH2) [I-67]
1.23
